- tested-system: DYRK1A (Homo sapiens, UniProt Q13627)
- method-description: Kinase TR-FRET assay, DYRK1A
- Assay type: biochemical
- Parameters: full-length, wild-type human DYRK1A (NM_001396) with an HA tag; expressed in transfected cells; host or cells: human U2-OS osteosarcoma cells, transient transfection of a pcDNA3.1 plasmid
- measurement-parameters: full-length human kinase, 10 μM ATP
measurement-label: IC50 (µM)

| molecule | IC50 / µM |
| --- | --- |
| Cc1nc2ccc(-c3cc(N)nc(N)c3)nc2n1C[C@H](C)Oc1cccc(Br)n1 [Example 180] | 0.005 |
| Cc1nc2ccc(-c3cc(N)nc(N)c3)nc2n1CCC1CC1 [Example 17] | 0.006 |
| COc1ccc2c(c1)CC(n1c(C)nc3ccc(-c4cc(N)nc(N)c4)nc31)C2 (centres unmarked) [Example 98] | 0.004 |

1. Cc1nc2ccc(-c3cc(N)nc(N)c3)nc2n1C1CC2CCC1C2 (centres unmarked) [Example 155]
2. Nc1cc(-c2ccc3nc(Cl)n(C4CCCC4)c3n2)cc(N)n1 [Example 220]
[in] Which shows the larger IC50 value: 1 or 2 ? Your choice should be expressed through its label.
[out] 1
(1: 0.012 µM, 2: 0.003 µM)

---

- tested-system: His-TEV-DYRK1A Kinase domain (aa127-485) (Homo sapiens)
- Construct: His-TEV-DYRK1A Kinase domain (aa127-485); His tag (N); TEV protease cleavage site (N)
- method-description: Kinase ADP assay (ADP Hunter), DYRK1A kinase domain
- Assay type: biochemical
- measurement-parameters: 20 μM ATP
measurement-label: IC50 (µM)

| compound | IC50 [µM] |
| --- | --- |
| CCCc1nc2ccc(-c3cc(N)nc(N)c3)nc2n1C1CCCC1 [Example 160] | 0.024 |

P. Cc1nc2ccc(-c3cc(N)nc(N)c3)nc2n1Cc1ccc(F)cc1 [Example 10]
Q. CC[C@@H](Cn1c(C)nc2ccc(-c3cc(N)nc(N)c3)nc21)Oc1ccccc1 (single isomer, unassigned) [Example 119]
[in] Param metric = IC50; output whichever of P , Q has the minimum value. Your choice should be expressed through its label.
[out] Q
(Q: 0.004 µM, P: 0.079 µM)

a. Cc1nc2ccc(-c3cc(N)nc(N)c3)nc2n1CCOc1ncccc1Br [Example 169]
b. Cc1nc2ccc(-c3cc(N)nc(N)c3)nc2n1C[C@H](C)Oc1ccc(F)cc1 (single isomer, unassigned) [Example 129]
[in] Param metric = IC50; output whichever of a , b has the minimum value. Your choice should be expressed through its label.
[out] b

I. Cc1nc2ccc(-c3cc(N)nc(N)c3)nc2n1CCC(F)(F)F [Example 108]
II. CCCC(C)n1c(C)nc2ccc(-c3cc(N)nc(N)c3)nc21 (centres unmarked) [Example 64]
III. Cc1nc2ccc(-c3cc(N)nc(N)c3)nc2n1C1CCCc2ccccc21 (centres unmarked) [Example 62]
IV. Cc1nc2ccc(-c3cc(N)nc(N)c3)nc2n1Cc1ccccc1 [Example 8]
[in] Arrange the 4 compounds by rising IC50, starting with the smallest. Please express your ranking as an ordered list of the labels.
[out] I, II, IV, III

1. Cc1nc2ccc(-c3cc(F)nc(N)c3F)nc2n1C1CC1 [Example 241]
2. CCc1nc2ccc(-c3cc(N)nc(N)c3)nc2n1C1Cc2ccccc2C1 [Example 158]
3. Cc1nc2ccc(-c3cc(N)nc(N)c3)nc2n1C1CC2CCC1C2 (centres unmarked) [Example 155]
[in] hey, can you rank those compounds up there by IC50? biggest number first please Please express your ranking as an ordered list of the labels.
[out] 1, 2, 3
(1: 0.098 µM, 2: 0.014 µM, 3: 0.005 µM)

P. Cc1nc2ccc(-c3cc(N)nc(N)c3)nc2n1Cc1ccnc(F)c1 [Example 84]
Q. Cc1nc2ccc(-c3cc(N)nc(N)c3)nc2n1C[C@@H](C)Sc1ccccc1 (single isomer, unassigned) [Example 136]
[in] Which shows the larger IC50 value: P or Q ? Your choice should be expressed through its label.
[out] Q
(Q: 0.028 µM, P: 0.019 µM)

1. Cc1nc2ccc(-c3cc(N)nc(N)c3)nc2n1CCC1CCCCC1C (centres unmarked) [Example 102]
2. CCn1c(C#N)nc2ccc(-c3cc(N)nc(N)c3)nc21 [Example 223]
[in] Which shows the larger IC50 value: 1 or 2 ? Your choice should be expressed through its label.
[out] 1
(1: 0.017 µM, 2: 0.009 µM)
